Tested on: SK-OV-3
Test: Cytotoxicity against human ovarian adenocarcinoma (SK-OV-3) cell line using MTT assay
Assay type: functional, cell-based
# log10 IC50 annotations
// units: µM (pre-log); metric: IC50; scale: log10

Previously resolved entries follow.
{"columns": ["compound", "log10 IC50"],
 "data": [
  ["O=C(c1ccccc1)N1CCc2cc(S(=O)(=O)N3CC(c4ccccc4)NC3=O)ccc21 (stereo unspecified)", -0.25],
  ["Nc1ccc(C(=O)N2CCc3cc(S(=O)(=O)N4CC(c5ccccc5)NC4=O)ccc32)cc1 (stereo unspecified)", 0.09],
  ["O=C(c1ccc([N+](=O)[O-])cc1)N1CCc2cc(S(=O)(=O)N3CC(c4ccccc4)NC3=O)ccc21 (stereo unspecified)", 0.63],
  ["O=C(Nc1ccc(Cl)cc1)NS(=O)(=O)c1ccc2c(c1)CCC2", 2.35],
  ["O=C1NC(c2ccccc2)CN1S(=O)(=O)c1ccc2c(c1)CCC2 (stereo unspecified)", 1.08]
]}

Please turn your attention to the following entry.
Qu. Check SK-OV-3 data and give log10 IC50 for `COc1cccc2c1C(=O)c1c(O)c3c(c(O)c1C2=O)C[C@@](O)(C(=O)CO)C[C@@H]3O[C@H]1C[C@H](N)[C@H](O)[C@H](C)O1` .
Ans. 0.62
